We begin with a simple list: items and their reported inhibition.
target: G protein-coupled receptor kinase 6 (Homo sapiens); conditions: at 1 µM;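 further: values are averaged percent inhibition of GRK6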

# Chem Smiles, Target Under Test, Measurement Units, inhibition
rows = [
    ("Nc1nc(-c2ccc(F)cc2)c(-c2ccc3ncccc3n2)s1", "G protein-coupled receptor kinase 6 (Homo sapiens)", "%", 5.57),
    ("CNC(=O)c1cccc(C#Cc2cncnc2Nc2ccc(OCc3cccc(F)c3)c(Cl)c2)c1", "G protein-coupled receptor kinase 6 (Homo sapiens)", "%", 3.57),
    ("COc1cc(/C=N/Nc2ncnc3[nH]ncc23)ccc1O", "G protein-coupled receptor kinase 6 (Homo sapiens)", "%", 5.42),
    ("Cc1cccc2c1NC(=O)/C2=N\\Nc1ccc(S(N)(=O)=O)cc1", "G protein-coupled receptor kinase 6 (Homo sapiens)", "%", 3.62),
    ("COC(=O)Nc1nc2ccc(S(=O)(=O)c3ccc(NC(=O)Nc4cc(C(F)(F)F)ccc4F)cc3)cc2[nH]1", "G protein-coupled receptor kinase 6 (Homo sapiens)", "%", -0.49),
    ("COc1cc(Nc2nccc(Nc3ccc4c(C)n[nH]c4c3)n2)cc(OC)c1OC", "G protein-coupled receptor kinase 6 (Homo sapiens)", "%", -4.13),
    ("Fc1cccc(COc2ccc(Nc3ncnc4sc(-c5ccco5)cc34)cc2Cl)c1", "G protein-coupled receptor kinase 6 (Homo sapiens)", "%", 11.6),
    ("CCCN1CCC(c2ccc(Nc3nc(Nc4cc(F)ccc4C(N)=O)c4cc[nH]c4n3)c(OC)c2)CC1", "G protein-coupled receptor kinase 6 (Homo sapiens)", "%", 58.8),
    ("COc1cc2c(cc1Nc1nc(Nc3ccsc3C(N)=O)c3cc[nH]c3n1)N(C(=O)CN(C)C)CCC2(C)C", "G protein-coupled receptor kinase 6 (Homo sapiens)", "%", 87.2),
    ("CCOc1ccc2c(-c3ccnc(Nc4cccc(C(F)(F)F)c4)n3)cnn2n1", "G protein-coupled receptor kinase 6 (Homo sapiens)", "%", -2.59),
]

----------
target: Leukocyte tyrosine kinase receptor (Homo sapiens); conditions: at 1 µM;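 further: each value is the mean inhibition of LTK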
Entries and their inhibition values follow.
Parameter Measured: inhibition (%)

# Compound, Value Reported
rows = [
    ("Fc1ccc(-c2cc(-c3c[nH]nc3-c3ccccn3)ccn2)cc1", 5.88),
    ("NS(=O)(=O)c1ccc(N/N=C2\\C(=O)Nc3ccc4ncccc4c32)cc1", 10.1),
    ("COC(=O)Nc1nc2ccc(Oc3ccc(NC(=O)Nc4cccc(Cl)c4)cc3)cc2[nH]1", 1.17),
    ("COC(=O)c1sc(-n2cnc3cc(OC)c(OC)cc32)cc1OCc1ccccc1C(F)(F)F", 6.79),
    ("Clc1ccc(-c2nn3ncccc3c2-c2ccnc(Nc3ccccc3)n2)cc1", 3.81),
    ("FC(F)(F)c1cccc(-c2nn3ncccc3c2-c2ccnc(Nc3ccc4c(c3)OCCO4)n2)c1", 1.73),
    ("COC(=O)Nc1nc2ccc(S(=O)(=O)c3ccc(NC(=O)Nc4cc(C(F)(F)F)ccc4F)cc3)cc2[nH]1", 0.53),
    ("CC(=O)Nc1cccc(C#Cc2cncnc2Nc2ccc(OCc3cccc(F)c3)c(Cl)c2)c1", 0.9),
    ("CS(=O)(=O)CCNCc1coc(-c2ccc3ncnc(Nc4ccc(OCc5ccccc5)cc4)c3c2)c1", 11.4),
    ("CN1CCC(n2cnc(-c3ccc(F)cc3)c2-c2ccnc(N)n2)CC1", 4.69),
    ("CC1=C(C(=O)Nc2cc(Cl)c3[nH]ncc3c2)C(c2ccc(C(F)(F)F)cc2)CC(=O)N1 (centres undefined)", 3.88),
    ("Nc1ncc(-c2cccc(S(N)(=O)=O)c2)c2scc(-c3ccc(F)c(Cl)c3)c12", 54.6),
    ("O=C(O[C@H]1CN[C@H](C#Cc2cc3ncnc(Nc4ccc(Cc5ccccc5)cc4)c3s2)C1)N1CCOCC1", 0.57),
    ("COc1cccc(-n2ncc3c(N/N=C/c4ccc(F)cc4)ncnc32)c1", 3.69),
    ("CNC(=O)c1cc(-c2ccc(F)cc2)cc(-c2ccc(S(=O)(=O)N3CCCC3)cc2)c1N", 3.29),
    ("NC(=O)c1sc(-n2cnc3ccc(C(F)(F)F)cc32)cc1OCc1ccccc1Br", 3.98),
    ("CC(=O)NCc1cccc(C#Cc2cncnc2Nc2ccc(OCc3cccc(F)c3)c(Cl)c2)c1", 0.67),
    ("COc1cc(/C=N/Nc2ncnc3[nH]ncc23)ccc1O", 12.2),
    ("CS(=O)(=O)CCNCc1ccc(-c2ccc3ncnc(Nc4ccc(OCc5ccccc5)c(C(F)(F)F)c4)c3c2)o1", 3.64),
]
